Recorded values, source patent US20220033501A1.

# target or test system: T1, TIM-3 protein on human peripheral blood mononuclear lymphocytes (PBMC) (human, UniProt Q8TDQ0 22-301)
# T1 sequence: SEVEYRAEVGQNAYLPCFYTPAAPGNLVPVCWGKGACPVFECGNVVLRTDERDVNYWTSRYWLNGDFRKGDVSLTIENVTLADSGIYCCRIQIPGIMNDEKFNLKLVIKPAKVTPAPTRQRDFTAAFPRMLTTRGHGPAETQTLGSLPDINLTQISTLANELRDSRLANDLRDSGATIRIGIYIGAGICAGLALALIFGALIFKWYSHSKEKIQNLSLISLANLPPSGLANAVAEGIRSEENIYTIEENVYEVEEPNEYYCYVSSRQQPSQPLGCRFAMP
# assay procedure: cell-based or functional assay
Listing: IFN-γ production (donor X); antibody 1 µg/ml, N = 1 of selected binders
measured property: IFN-γ production (donor X); antibody 1 µg/ml, N = 1 (pg/mL)

| binder | readout unit | value observed |
| --- | --- | --- |
| 18D2H2 fully human TIM-3 antibody (human IgG4, kappa) (antibody, V domains shown) VH: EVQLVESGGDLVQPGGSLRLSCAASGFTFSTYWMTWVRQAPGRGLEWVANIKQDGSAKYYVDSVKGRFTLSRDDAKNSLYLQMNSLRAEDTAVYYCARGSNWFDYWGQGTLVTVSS VL: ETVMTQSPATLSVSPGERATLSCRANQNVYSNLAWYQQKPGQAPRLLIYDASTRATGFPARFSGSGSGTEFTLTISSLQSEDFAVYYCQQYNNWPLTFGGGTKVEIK | pg/mL | 3000 |
| 134H3G6 fully human TIM-3 antibody (human IgG4, kappa) (antibody, V domains shown) VH: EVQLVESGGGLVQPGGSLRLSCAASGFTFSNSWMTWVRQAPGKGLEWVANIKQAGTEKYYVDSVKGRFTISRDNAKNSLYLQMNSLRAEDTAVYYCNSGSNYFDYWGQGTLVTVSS VL: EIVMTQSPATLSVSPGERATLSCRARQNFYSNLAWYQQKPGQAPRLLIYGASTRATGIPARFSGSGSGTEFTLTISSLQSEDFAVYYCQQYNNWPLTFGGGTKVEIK | pg/mL | 3250 |
| 57F4E5 fully human TIM-3 antibody (human IgG4, kappa) (antibody, V domains shown) VH: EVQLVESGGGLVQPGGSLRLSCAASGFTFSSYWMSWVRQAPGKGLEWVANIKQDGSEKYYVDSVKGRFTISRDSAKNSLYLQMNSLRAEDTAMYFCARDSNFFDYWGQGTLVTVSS VL: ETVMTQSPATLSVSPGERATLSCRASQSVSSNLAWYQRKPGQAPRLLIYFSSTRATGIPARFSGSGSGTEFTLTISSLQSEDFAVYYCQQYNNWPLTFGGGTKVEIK | pg/mL | 3550 |
| 7A4F10 fully human TIM-3 antibody (human IgG4, kappa) (antibody, V domains shown) VH: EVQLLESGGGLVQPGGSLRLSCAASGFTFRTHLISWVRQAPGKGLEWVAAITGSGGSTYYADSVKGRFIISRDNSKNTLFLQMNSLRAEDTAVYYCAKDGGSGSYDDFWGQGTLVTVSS VL: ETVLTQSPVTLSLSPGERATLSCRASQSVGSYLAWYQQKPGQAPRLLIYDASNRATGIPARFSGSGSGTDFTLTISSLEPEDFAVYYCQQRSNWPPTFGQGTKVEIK | pg/mL | 2920 |
| 39E5H1 fully human TIM-3 antibody (human IgG4, kappa) (antibody, V domains shown) VH: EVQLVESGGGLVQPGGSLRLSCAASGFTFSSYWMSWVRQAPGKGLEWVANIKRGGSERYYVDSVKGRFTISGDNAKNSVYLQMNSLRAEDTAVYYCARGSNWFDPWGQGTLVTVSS VL: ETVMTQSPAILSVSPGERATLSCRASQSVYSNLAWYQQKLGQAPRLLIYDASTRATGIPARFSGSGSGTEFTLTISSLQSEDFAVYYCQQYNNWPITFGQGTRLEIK | pg/mL | 3070 |
| 34B6D8 fully human TIM-3 antibody (human IgG4, kappa) (antibody, V domains shown) VH: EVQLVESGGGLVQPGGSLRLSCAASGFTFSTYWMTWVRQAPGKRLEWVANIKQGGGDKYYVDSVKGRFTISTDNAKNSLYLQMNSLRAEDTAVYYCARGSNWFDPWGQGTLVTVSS VL: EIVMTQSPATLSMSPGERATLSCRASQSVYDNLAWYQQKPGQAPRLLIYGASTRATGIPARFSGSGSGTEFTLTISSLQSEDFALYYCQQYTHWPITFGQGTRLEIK | pg/mL | 2930 |
